Entries annotated with measured Residual trypsin activity
Biological target: bovine trypsin (Bos taurus, UniProt P00760)
Sequence (P00760 24-246): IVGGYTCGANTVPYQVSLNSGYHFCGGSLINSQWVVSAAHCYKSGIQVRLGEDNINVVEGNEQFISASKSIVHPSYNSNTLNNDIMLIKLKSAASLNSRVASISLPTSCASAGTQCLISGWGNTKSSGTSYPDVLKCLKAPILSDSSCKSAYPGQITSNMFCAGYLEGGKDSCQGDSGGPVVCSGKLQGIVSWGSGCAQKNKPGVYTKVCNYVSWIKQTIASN
Test: Trypsin inhibitory activity of peptides (BApNA hydrolysis, OD405; IC50, Ki, residual activity)
Format: biochemical
Conditions: peptide 0.098 μM
Description: The substrates N-succinyl-Ala-Ala-Pro-Phe-p-nitroaniline (AAPFpNA), Nα—Benzoyl-L-arginine-4-nitroaniline hydrochloride (BApNA) and N-succinyl-[…] (AAApNA) are used in competitive binding reaction to determine the inhibitory activities against α-chymotrypsin, bovine trypsin, and porcine pancreatic elastase, respectively. […] The concentration of the peptide was measured using optical density (OD) at 280 nm. […]
Bridge positions count the residues as written; N and C are the ends. Peptide text beside a SMILES is read from it.
readout: Residual trypsin activity (%)

| compound | system | readout | measurement |
| --- | --- | --- | --- |
| CC[C@H](C)[C@@H]1NC(=O)[C@@H]2CCCN2C(=O)[C@@H]2CCCN2C(=O)[C@H]([C@@H](C)CC)NC(=O)[C@H](CO)NC(=O)[C@H](CCCCN)NC(=O)[C@H]([C@@H](C)O)NC(=O)[C@H](C)NC(=O)[C@H](CCCNC(=N)N)NC(=O)[C@H](C)NC(=O)[C@@H](N)CSSC[C@@H](C(=O)N[C@@H](Cc2ccccc2)C(=O)O)NC1=O [BT67] (H-CARATKSIPPICF-OH; disulfide 1-12) | bovine trypsin (Bos taurus, UniProt P00760) | Residual trypsin activity | 1.5 |
| CC[C@H](C)[C@@H]1NC(=O)[C@@H]2CCCN2C(=O)[C@@H]2CCCN2C(=O)[C@H]([C@@H](C)CC)NC(=O)[C@H](CO)NC(=O)[C@H](CCCCN)NC(=O)[C@H]([C@@H](C)O)NC(=O)[C@H](C)NC(=O)[C@H](CCCNC(=N)N)NC(=O)[C@@H]2CCCN2C(=O)[C@@H](N)CSSC[C@@H](C(=O)N[C@@H](Cc2ccccc2)C(=O)O)NC1=O [BT66] (H-CPRATKSIPPICF-OH; disulfide 1-12; C-terminus assumed) | bovine trypsin (Bos taurus, UniProt P00760) | Residual trypsin activity | 4.8 |
| CC[C@H](C)[C@@H]1NC(=O)[C@@H]2CCCN2C(=O)[C@@H]2CCCN2C(=O)[C@H]([C@@H](C)CC)NC(=O)[C@H](CO)NC(=O)[C@H](CCCNC(=N)N)NC(=O)[C@H]([C@@H](C)O)NC(=O)[C@H](C)NC(=O)[C@H](CCCNC(=N)N)NC(=O)CNC(=O)[C@@H](N)CSSC[C@@H](C(=O)N[C@@H](Cc2ccccc2)C(=O)O)NC1=O [BT17] (H-CGRATRSIPPICF-OH; disulfide 1-12; C-terminus assumed) | bovine trypsin (Bos taurus, UniProt P00760) | Residual trypsin activity | 93.6 |
